- test protocol: NCI Yeast Anticancer Drug Screen. Data for the sgs1 mgt1 strain (AID 161)
- particulars: S. cerevisiae sgs1 mgt1 strain, at 5.0 µM (retest, dose inferred, filed as 0.5), hits give high values
The panel holds about 79,000 compounds, 15% with a hit somewhere; the sample as a whole holds those more often.
Label Met when growth inhibition is at or above 30%; anything below gets Not met.

-- ask Does the reported growth inhibition for `Cc1ccc(C)c(C(=N)c2ccccc2Cc2ccccc2)c1` fall at or above the 30% mark?
-- reply Met

-- ask Does the reported growth inhibition for `CN(C)CCNC(=Cc1ccc2ccccc2[n+]1C)NCCN(C)C` fall at or above the 30% mark?
-- reply Not met

-- ask Does the reported growth inhibition for CC1=CN2C(c3ccccc3)=NON(c3ccc(C)cn3)C2C=C1 (stereo unspecified) fall at or above the 30% mark?
-- reply Not met

-- ask Does the reported growth inhibition for `CC1(C)CC(=O)C(/C=N/c2nc(-c3ccc(Br)cc3)cs2)=C(O)C1` fall at or above the 30% mark?
-- reply Not met

-- ask Does the reported growth inhibition for `S=C(NCc1ccccn1)N/N=C/c1ccccn1` fall at or above the 30% mark?
-- reply Met

-- ask Does the reported growth inhibition for `COC(=O)C(=O)CC(=O)c1cccc(OC)c1` fall at or above the 30% mark?
-- reply Not met
